Quick reference for Ratio* among some molecules
ASSAY_SYSTEM: BRM (Homo sapiens)
Construct: made in house; host or cells: High Five insect cells
Sequence (P51531 whole entry): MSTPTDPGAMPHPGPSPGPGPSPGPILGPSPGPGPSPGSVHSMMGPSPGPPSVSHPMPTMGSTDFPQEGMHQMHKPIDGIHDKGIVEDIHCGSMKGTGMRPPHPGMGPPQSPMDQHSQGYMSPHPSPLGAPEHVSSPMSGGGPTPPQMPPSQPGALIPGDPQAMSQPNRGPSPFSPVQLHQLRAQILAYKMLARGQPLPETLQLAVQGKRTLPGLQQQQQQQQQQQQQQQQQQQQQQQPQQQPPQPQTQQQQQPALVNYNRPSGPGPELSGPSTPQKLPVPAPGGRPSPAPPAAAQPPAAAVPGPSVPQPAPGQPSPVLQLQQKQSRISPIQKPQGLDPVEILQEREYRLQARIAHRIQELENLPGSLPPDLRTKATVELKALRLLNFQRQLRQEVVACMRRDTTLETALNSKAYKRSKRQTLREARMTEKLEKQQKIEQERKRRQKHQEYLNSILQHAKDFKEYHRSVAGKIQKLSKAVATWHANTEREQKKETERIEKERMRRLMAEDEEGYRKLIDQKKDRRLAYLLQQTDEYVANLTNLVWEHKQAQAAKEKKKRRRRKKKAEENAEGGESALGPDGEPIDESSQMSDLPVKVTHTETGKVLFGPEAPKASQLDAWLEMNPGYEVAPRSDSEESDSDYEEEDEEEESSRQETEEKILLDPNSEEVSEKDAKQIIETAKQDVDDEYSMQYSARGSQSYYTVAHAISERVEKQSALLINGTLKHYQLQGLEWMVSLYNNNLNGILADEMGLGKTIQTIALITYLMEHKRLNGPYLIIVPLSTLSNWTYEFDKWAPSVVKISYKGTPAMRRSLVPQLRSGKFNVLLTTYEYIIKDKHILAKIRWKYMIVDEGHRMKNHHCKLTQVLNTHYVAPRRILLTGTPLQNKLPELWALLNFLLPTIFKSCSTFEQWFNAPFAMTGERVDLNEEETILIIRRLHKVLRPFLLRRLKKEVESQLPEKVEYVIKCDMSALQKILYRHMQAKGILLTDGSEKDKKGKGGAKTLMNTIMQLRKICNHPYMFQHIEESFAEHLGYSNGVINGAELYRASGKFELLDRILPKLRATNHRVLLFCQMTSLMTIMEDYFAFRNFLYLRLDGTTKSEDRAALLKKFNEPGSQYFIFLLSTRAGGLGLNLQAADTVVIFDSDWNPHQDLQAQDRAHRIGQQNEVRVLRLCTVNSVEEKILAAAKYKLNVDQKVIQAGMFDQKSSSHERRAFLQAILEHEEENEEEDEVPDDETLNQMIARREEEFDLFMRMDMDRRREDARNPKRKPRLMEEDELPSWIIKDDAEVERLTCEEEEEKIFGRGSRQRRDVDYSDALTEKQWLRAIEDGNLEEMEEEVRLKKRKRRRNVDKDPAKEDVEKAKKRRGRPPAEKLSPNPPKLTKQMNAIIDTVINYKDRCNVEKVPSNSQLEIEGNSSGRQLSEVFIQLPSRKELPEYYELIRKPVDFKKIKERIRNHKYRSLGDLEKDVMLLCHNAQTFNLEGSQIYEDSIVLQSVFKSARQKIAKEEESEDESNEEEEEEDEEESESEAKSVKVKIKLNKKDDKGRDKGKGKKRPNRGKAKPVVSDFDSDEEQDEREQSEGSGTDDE
ASSAY_EXPLANATION: ATPase catalytic activity of BRM, ADP-Glo in vitro biochemical assay
PARTICULARS: ratio of BRG1 IC50 to BRM IC50
REPORTED_METRIC: Ratio*

• C[C@H]1COCc2ccc(C(=O)NCc3cc4nc(-c5cccc([C@@H]6CC6(F)F)n5)ccc4cn3)cc2S1(=O)=O [Compound 393] = 33.52
• O=C(NCc1cc2nc(N3CCOc4cc(C(F)F)cnc43)ccc2cn1)c1ccc2c(c1)S(=O)(=O)CCOC2 [Compound 508] = 10.53
• O=C(NCc1cc2nc(-c3cccc(OCC4CC4)n3)ccc2cn1)c1ccc2c(c1)S(=O)(=O)CCOC2 [Compound 381] = 12.43
• CCc1cnc2c(c1)OCCN2c1ccc2cnc(CNC(=O)c3ccc4c(c3)S(=O)(=O)CCOC4)cc2n1 [Compound 665] = 13.54
• O=C(NCc1cc2nc(N3CCCc4c(Cl)ccnc43)ccc2cn1)c1ccc2c(c1)S(=O)(=O)CCOC2 [Compound 478] = 9.80
• Cc1ccnc2c1N(C)CCN2c1ccc2cnc(CNC(=O)c3ccc4c(c3)S(=O)(=O)CCOC4)cc2n1 [Compound 681] = 9.53
• Cc1cnc2c(c1)OCCN2c1ccc2cnc(CNC(=O)c3ccc4c(c3)S(=O)(=O)C(C)COC4)cc2n1 (stereo not shown) [Compound 545] = 8.60
• O=C(NCc1cc2nc(-c3cccc([C@@]45CCOCC4C5)n3)ccc2cn1)c1ccc2c(c1)S(=O)(=O)CCOC2 (stereo partly shown) [Compound 378] = 13.88
• O=C(NCc1cc2nc(N3CCCc4ccc(Cl)cc43)ccc2cn1)c1ccc2c(c1)S(=O)(=O)CCOC2 [Compound 533] = 12.51
• C[C@@H]1CN(c2cccc(-c3ccc4cnc(CNC(=O)c5ccc6c(c5)S(=O)(=O)[C@@H](C)CO6)cc4n3)n2)C[C@H](C)O1 [Compound 687] = 18.34
• CO[C@H](C)Cn1ccc2c(-c3ccc4cnc(CNC(=O)c5ccc6c(c5)S(=O)(=O)CCOC6)cc4n3)ccnc21 [Compound 448] = 13.96
• COc1cnc2c(c1C)CCCN2c1ccc2cnc(CNC(=O)c3ccc4c(c3)S(=O)(=O)CCOC4)cc2n1 [Compound 637] = 10.34
• CO[C@@H](c1ccc2c(n1)N(c1ccc3cnc(CNC(=O)c4ccc5c(c4)S(=O)(=O)CCOC5)cc3n1)CCC2)C1CC1 [Compound 663] = 7.43

###

# pIC50 per entry
ASSAY_SYSTEM: BRM (Homo sapiens)
Construct: made in house; host or cells: High Five insect cells
ASSAY_EXPLANATION: ATPase catalytic activity of BRM, ADP-Glo in vitro biochemical assay
PARTICULARS: ATPase catalytic activity, ADP-Glo; 30 nM BRM, 400 μM ATP
pIC50: −log10 of the molar value.
REPORTED_METRIC: pIC50

* COCCN(c1cccc(-c2ccc3cnc(CNC(=O)c4ccc5c(c4)S(=O)(=O)CCOC5)cc3n2)n1)C1CC1 | 7.62
* COc1nc(C(C)(F)F)ccc1-c1ccc2cnc(CNC(=O)c3cc(F)c4c(c3)S(=O)(=O)[C@@H](C)COC4)cc2n1 | 7.69
* CO[C@@H]1CCS(=O)(=O)c2cc(C(=O)NCc3cc4nc(-c5cccc(N6C[C@@H](C)O[C@@H](C)C6)n5)ccc4cn3)ccc2C1 | 7.95
